Target: Alpha-2A adrenergic receptor (Homo sapiens, UniProt P08913); further: assay procedure not described here
Sequence (P08913 whole entry): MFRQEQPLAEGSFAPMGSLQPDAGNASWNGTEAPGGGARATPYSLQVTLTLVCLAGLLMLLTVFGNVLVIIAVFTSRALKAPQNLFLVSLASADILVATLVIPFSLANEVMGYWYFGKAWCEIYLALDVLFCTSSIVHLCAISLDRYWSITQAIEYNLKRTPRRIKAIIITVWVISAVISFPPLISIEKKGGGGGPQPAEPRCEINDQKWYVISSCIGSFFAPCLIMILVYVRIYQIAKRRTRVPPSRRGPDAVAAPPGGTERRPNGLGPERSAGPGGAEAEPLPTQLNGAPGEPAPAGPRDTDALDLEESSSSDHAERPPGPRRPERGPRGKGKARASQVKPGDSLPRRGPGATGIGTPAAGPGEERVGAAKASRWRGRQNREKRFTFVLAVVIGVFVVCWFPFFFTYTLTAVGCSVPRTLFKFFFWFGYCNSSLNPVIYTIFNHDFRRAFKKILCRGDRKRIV
Format: functional, cell-based
So I've got a bunch of compounds here, and I need their AC50 values.

Compound	System	Readout type	Assay result
NS(=O)(=O)c1cc2c(cc1Cl)N=C(CSCc1ccccc1)NS2(=O)=O [BENZTHIAZIDE]	Alpha-2A adrenergic receptor (Homo sapiens, UniProt P08913)	AC50	> 10 µM
C[N+]12CCC(CC1)C(OC(=O)C(O)(c1ccccc1)c1ccccc1)C2 (centres undefined)	Alpha-2A adrenergic receptor (Homo sapiens, UniProt P08913)	AC50	> 30 µM
C[C@]12C/C(=C/O)C(=O)C[C@@H]1CC[C@@H]1[C@@H]2CC[C@@]2(C)[C@H]1CC[C@]2(C)O [OXYMETHOLONE]	Alpha-2A adrenergic receptor (Homo sapiens, UniProt P08913)	AC50	> 30 µM

Please examine the following record next.
response.value for COc1cc(C)c(/C=C/C(C)=C/C=C/C(C)=C/C(=O)O)c(C)c1C [ACITRETIN] (field: AC50) = > 10 µM

---

target: 3',5'-cyclic-AMP phosphodiesterase 4D (Homo sapiens, UniProt Q08499); format: functional; further: assay procedure not described here
Sequence (Q08499 whole entry): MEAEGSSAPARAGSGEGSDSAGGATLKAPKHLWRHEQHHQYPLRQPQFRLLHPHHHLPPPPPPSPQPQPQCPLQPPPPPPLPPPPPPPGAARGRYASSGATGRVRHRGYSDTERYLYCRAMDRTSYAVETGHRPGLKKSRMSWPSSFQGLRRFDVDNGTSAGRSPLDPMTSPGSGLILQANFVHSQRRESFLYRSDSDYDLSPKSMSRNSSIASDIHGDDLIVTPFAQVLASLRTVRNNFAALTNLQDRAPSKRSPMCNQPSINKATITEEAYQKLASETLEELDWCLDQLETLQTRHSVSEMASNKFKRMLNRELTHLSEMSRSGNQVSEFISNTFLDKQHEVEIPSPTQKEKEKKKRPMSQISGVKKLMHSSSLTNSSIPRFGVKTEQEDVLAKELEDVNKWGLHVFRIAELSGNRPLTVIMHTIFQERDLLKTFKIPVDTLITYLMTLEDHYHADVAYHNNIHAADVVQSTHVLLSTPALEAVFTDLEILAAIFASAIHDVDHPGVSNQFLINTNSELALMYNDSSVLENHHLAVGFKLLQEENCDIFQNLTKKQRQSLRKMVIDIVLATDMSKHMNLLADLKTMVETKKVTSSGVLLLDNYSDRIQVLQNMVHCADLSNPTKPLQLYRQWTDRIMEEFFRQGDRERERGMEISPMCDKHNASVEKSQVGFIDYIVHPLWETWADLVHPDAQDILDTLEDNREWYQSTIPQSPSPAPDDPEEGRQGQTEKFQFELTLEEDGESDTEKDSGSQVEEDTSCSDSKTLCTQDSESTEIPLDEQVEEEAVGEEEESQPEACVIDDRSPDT
Readout type: AC50

Compound	AC50
CC(C(=O)O)c1ccc2oc(-c3ccc(Cl)cc3)nc2c1 (centres undefined)	> 30 µM
CN(Cc1cnc2nc(N)nc(N)c2n1)c1ccc(C(=O)N[C@@H](CCC(=O)O)C(=O)O)cc1 [METHOTREXATE]	> 30 µM
C=CCN1CCc2nc(N)sc2CC1 [TALIPEXOLE]	> 30 µM

response.value for C=CC[N+]1([C@H]2C[C@H]3[C@@H]4CC[C@H]5C[C@H](O)[C@@H](N6CCOCC6)C[C@]5(C)[C@H]4CC[C@]3(C)[C@H]2OC(C)=O)CCCC1 (field: AC50) = > 30 µM

---

target: Muscarinic acetylcholine receptor M1 (Homo sapiens, UniProt P11229); assay type: functional; further: assay procedure not described here
Sequence (P11229 whole entry): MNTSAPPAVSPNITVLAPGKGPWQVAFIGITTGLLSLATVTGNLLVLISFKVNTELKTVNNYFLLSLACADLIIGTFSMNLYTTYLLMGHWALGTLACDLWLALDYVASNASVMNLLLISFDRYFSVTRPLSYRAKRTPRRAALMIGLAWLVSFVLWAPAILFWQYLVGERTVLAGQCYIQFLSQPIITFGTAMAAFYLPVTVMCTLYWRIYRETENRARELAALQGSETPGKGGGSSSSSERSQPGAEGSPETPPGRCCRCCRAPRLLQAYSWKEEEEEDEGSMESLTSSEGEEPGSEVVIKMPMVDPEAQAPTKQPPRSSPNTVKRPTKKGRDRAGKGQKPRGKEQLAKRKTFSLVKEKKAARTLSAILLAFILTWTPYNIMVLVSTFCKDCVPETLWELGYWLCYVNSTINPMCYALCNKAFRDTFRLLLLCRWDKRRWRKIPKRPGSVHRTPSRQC
Where a SMILES comes first, the peptide text is derived from it. [ ]: non-standard residue; d: D form. pGlu = O=C1CC[C@@H](C(=O)O)N1; Thz = O=C(O)[C@@H]1CSCN1
Readout type: AC50

Below are 8 compounds. Give each one its AC50.
1. CO/N=C(\C(=O)N[C@@H]1C(=O)N2C(C(=O)O)=C(CSc3nc(=O)c(=O)[nH]n3C)CS[C@H]12)c1csc(N)n1
2. COc1ccc(CN2CCN(C(c3ccc(F)cc3)c3ccc(F)cc3)CC2)c(OC)c1OC
3. CCOC(=O)c1c(CSc2ccccc2)n(C)c2cc(Br)c(O)c(CN(C)C)c12
4. Cc1onc(-c2c(F)cccc2Cl)c1C(=O)N[C@@H]1C(=O)N2[C@@H]1SC(C)(C)[C@@H]2C(=O)O
5. COc1ccc([C@@H]2CC(=O)c3c(O)cc(O)cc3O2)cc1O
6. CCCCCCCN(CC)CCCC(O)c1ccc(NS(C)(=O)=O)cc1 (stereo not given) [IBUTILIDE]
7. O=S1(=O)CCN(CN2CCS(=O)(=O)NC2)CN1
8. CNCCc1ccc(OC(=O)C(C)C)c(OC(=O)C(C)C)c1

Resp:
1. > 30 µM
2. 0.94 µM
3. 18 µM
4. > 30 µM
5. > 10 µM
6. > 30 µM
7. > 30 µM
8. > 30 µM

Below are 7 compounds. Give each one its AC50.
1. Cc1cccc(C)c1NC(=O)CC12CCCN1CCC2 [PILSICAINIDE]
2. Oc1cc(O)c(Cl)cn1
3. CC(C)(O/N=C(\C(=O)N[C@@H]1C(=O)N2C(C(=O)[O-])=C(C[n+]3ccccc3)CS[C@H]12)c1csc(N)n1)C(=O)O
4. O=C1CC[C@@H](C(=O)N2CSC[C@H]2C(=O)O)N1 [PIDOTIMOD] ([pGlu]-[Thz]-OH)
5. CCCC(C)(COC(N)=O)COC(N)=O [MEPROBAMATE]
6. CCN1CCCC1CNC(=O)c1cc(S(=O)(=O)CC)ccc1OC (stereo not given) [SULTOPRIDE]
7. CN(C)Cc1nnc2n1-c1ccc(Cl)cc1C(c1ccccc1)=NC2

Resp:
1: > 30 µM; 2: > 30 µM; 3: > 300 µM; 4: > 30 µM; 5: > 30 µM; 6: > 30 µM; 7: > 10 µM
